Recorded IC50 values for a group of compounds are listed next.
# measured_on: Recombinant human HSP90a (Homo sapiens)
# experiment_description: HSP90 radioligand filter binding test ([3H]17AAG competition)
# measurement_parameters: [3H]17AAG 0.08 μM, HSP90 1.5 μg/assay, 22° C., 30 min; read-out: IC50 (HSP90 inhibition)

Which IC50 value belongs to CN(C1CNC1)S(=O)(=O)c1ccccc1-c1ccc2nc(N)nc(C(=O)N3Cc4ccccc4C3)c2c1 [Compound A68] ?
0.01 to 1 µM

Which IC50 value belongs to Nc1nc(C(=O)N2Cc3ccccc3C2)c2cc(-c3ccccc3C(=O)N3CCC(O)C3)ccc2n1 (stereo not shown) [Compound A36] ?
0.01 to 1 µM

###

# measured_on: Recombinant human HSP90a (Homo sapiens, UniProt P07900)
# experiment_description: HSP90 radioligand filter binding test ([3H]17AAG competition)
# measurement_parameters: [3H]17AAG 0.08 μM, HSP90 1.5 μg/assay, 22° C., 30 min; read-out: IC50 (HSP90 inhibition)
Recorded IC50 values for a group of compounds are listed next.

Please review the following examples before continuing.
In [3]: df
Out[3]:
                                   compound  measurement_label    endpoint_value
0  CCN(CC)C(=O)c1cc(F)ccc1-c1ccc2nc(N)nc(C(=O)N3Cc4ccccc4C3)c2c1               IC50     10 to 1000 nM
1  CNC(=O)C1CCCN1C(=O)c1ccccc1-c1ccc2nc(N)nc(C(=O)N3Cc4ccccc4C3)c2c1 (stereo not shown)               IC50  1000 to 10000 nM
2  Cc1cn(S(=O)(=O)c2ccccc2-c2ccc3nc(N)nc(C(=O)N4Cc5ccccc5C4)c3c2)cn1               IC50     10 to 1000 nM
3  CC1CCCN1S(=O)(=O)c1ccccc1-c1ccc2nc(N)nc(C(=O)N3Cc4ccccc4C3)c2c1 (stereo not shown)               IC50     10 to 1000 nM
4  Nc1nc(C(=O)N2Cc3ccccc3C2)c2cc(-c3cc(F)c(F)cc3C(=O)N3CCC3)ccc2n1               IC50     10 to 1000 nM

Which IC50 value belongs to "Nc1nc(C(=O)N2Cc3ccccc3C2)c2cc(-c3ccccc3S(=O)(=O)NC3CC3)ccc2n1" ?
10 to 1000 nM

Which IC50 value belongs to "CCNC(=O)c1ccc(Cl)cc1-c1ccc2nc(N)nc(C(=O)N3Cc4ccccc4C3)c2c1" ?
10 to 1000 nM

###

Recorded IC50 values for a group of compounds are listed next.
# measured_on: Recombinant human HSP90a (Homo sapiens)
# experiment_description: HSP90 radioligand filter binding test ([3H]17AAG competition)
# measurement_parameters: [3H]17AAG 0.08 μM, HSP90 1.5 μg/assay, 22° C., 30 min; read-out: IC50 (HSP90 inhibition)

>>> print(df.to_string())
                                   compound                              measured_on  measurement_label  endpoint_value
0  Nc1nc(C(=O)N2Cc3ccccc3C2)c2cc(-c3ccccc3C(=O)N3CCC3)ccc2n1  Recombinant human HSP90a (Homo sapiens)               IC50   10 to 1000 nM
1  Nc1nc(C(=O)N2Cc3ccccc3C2)c2cc(-c3ccccc3S(=O)(=O)N3CCCC3C(=O)NCCO)ccc2n1 (stereo not shown)  Recombinant human HSP90a (Homo sapiens)               IC50   10 to 1000 nM
2  CN(C)S(=O)(=O)c1ccccc1-c1ccc2nc(N)nc(C(=O)N3Cc4ccccc4C3)c2c1  Recombinant human HSP90a (Homo sapiens)               IC50   10 to 1000 nM
3  CC(=O)NC1CCN(S(=O)(=O)c2ccccc2-c2ccc3nc(N)nc(C(=O)N4Cc5ccccc5C4)c3c2)C1 (stereo not shown)  Recombinant human HSP90a (Homo sapiens)               IC50   10 to 1000 nM
4  C[N+]1([O-])CCN(S(=O)(=O)c2ccccc2-c2ccc3nc(N)nc(C(=O)N4Cc5ccccc5C4)c3c2)CC1  Recombinant human HSP90a (Homo sapiens)               IC50   10 to 1000 nM

Which IC50 value belongs to "CCN(C)C(=O)c1ccccc1-c1ccc2nc(N)nc(C(=O)N3Cc4ccccc4C3)c2c1" ?
10 to 1000 nM

Which IC50 value belongs to Nc1nc(C(=O)N2Cc3ccccc3C2)c2cc(-c3ccccc3S(=O)(=O)N3CCC(CO)C3)ccc2n1 (stereo not shown) ?
10 to 1000 nM

Measured values drawn from patent US8546565B2 for this set.
